test: label from the status in PepcDB records
Property label: protein production

Please review the following examples before continuing.
[
  {
    "Polymer sequence": "MRCRFPYDGKQRIILEEGYPVYECNKFCGCSRTCQNRVLQNGIRAKLEVFRTESKGWGLRACEHILRGTFVCEYIGEVLDQQEANKRRNQYGNGDCSYILDIDANINDIGRLMEEELDYAIDATTHGNISRFINHSCSPNLVNHQVIVESMESPLAHIGLYASMDIAAGEEITRDYGRRPVPSEQENEHPCHCKATNCRGLLS",
    "Test value": "failed"
  },
  {
    "Polymer sequence": "MKTTIQTITLILGLFISSLAIASPEFPTQEPMGGKTFGHSVKHVGNGIYVFRWWVYRNFFVVTDDGVIVSDPLNPKAAKLLQSEIRKITDKPVKYVVYSHNHHDHISGGNIFKAEGAKFIGHKNLLKQLKDHPSPVLPIPDIVFEDTYTLTLGNRTLELSYFGPNHGDSLVVMRFPKEKILFVVDIVTPRRVAFRGMPDFWPDEWVRSLKEIELMDVDYVISAHGPENQPAIDPASVIKEQRVYIEDLMAAVKLKMDEGVHSPDALRKQVKLPKYEHWQYYEQWLPMNIERIWAYYHMGW",
    "Test value": "failed"
  },
  {
    "Polymer sequence": "MRITSTANPRIKELARLLERKHRDSQRRFLIEGAREIERALQAGIELEQALVWEGGLNPEEQQVYAALGRVGRLALLEVSEAVLKKLSVRDNPAGLIALARMPERTLEEYRPSPDALILVAVGLEKPGNLGAVLRSADAAGAEAVLVAGGVDLYSPQVIRNSTGVVFSLRTLAASESEVLDWIKQHNLPLVATTPHAEALYWEANLRPPVAIAVGPEHEGLRAAWLEAAQTQVRIPMQGQADSLNVSVSAALLLYEALRQRLLRDRLTKTHSTL",
    "Test value": "not failed"
  },
  {
    "Polymer sequence": "MAQRQPHSPNQTLISITNDTESSSSVVSNDNTNKGWSGDNSPGIEALCAIYITYAVIISVGILGNAILIKVFFKTKSMQTVPNIFITSLAFGDLLLLLTCVPVDATHYLAEGWLFGRIGCKVLSFIRLTSVGVSVFTLTILSADRYKAVVKPLERQPSNAILKTCVKAGCVWIVSMIFALPEAIFSNVYTFRDPNKNMTFESCTSYPVSKKLLQEIHSLLCFLVFYIIPLSIISVYYSLIARTLYKSTLNIPTEEQSHARKQIESRKRIARTVLVLVALFALCWLPNHLLYLYHSFTSQTYVDPSAMHFIFTIFSRVLAFSNSCVNPFALYWLSKSFQKHFKAQLFCCKAERPEPPVADTSLTTLAVMGTVPGTGSIQMSEISVTSFTGCSVKQAEDRF",
    "Test value": "failed"
  },
  {
    "Polymer sequence": "MNSPETTWTEENSSCALHLHWYALCERKDLVANSGVVAWLDGKQLALFYLPDTAQGEQLFAIDNRDPKSGANVIGRGLTGQIAGELVIASPLYKQHFRLHDGSCIEYPEQRLEVWPVRLNGERVEIAV",
    "Test value": "failed"
  },
  {
    "Polymer sequence": "VKRAVQKTSDLIVLGLPWKTTEQDLKEYFSTFGEVLMVQVKKDLKTGHSKGFGFVRFTEYETQVKVMSQRHMIDGRWCDCKLPNSKQSQD",
    "Test value": "not failed"
  },
  {
    "Polymer sequence": "MSKKPPNRPGITFEIGARLEALDYLQKWYPSRIEKIDYEEGKMLVHFERWSHRYDEWIYWDSNRLRPLERPALRKEGLKDE",
    "Test value": "not failed"
  },
  {
    "Polymer sequence": "MFLVTGVFVSVRHERTGTGTTARESVQRITWFGTLRDDGVALVMPLSDRMLPTGIIREVPEERFLEEFMPDQATYEEHFRETAESLRGRLQLASTLPTDLYPEERILLDALSALLHGRSAAKPVDADIPAVLELLAHGQEGRSAGAFQTRLSGAAVDYRRQGDYPRALLFYDRALTMQGQEDRLLFNVARVHYEMGELAEAETCLKRALESNPALEEAGRFLAFLQKTTLQPQAGDE",
    "Test value": "failed"
  }
]

For `MIKIAVIAGGSFDCLPEPADLYVGVDAGSLRLLDHSLPLDWAIGDFDSVTSEELGQIREMAEQFLQAPAEKDDTDLELALKEIFKAYPQAQVRIYGALGGRMDHMMSNLFLVAEPDLAAYMEQIELVDSQNVVRFRPAGSHRISPIAGMKYISFMPSDQSHLTIRYAKYPLDASNYFFKKCYASNEFIDRDIDIQLDQGYVVLIYSKDKD` the sequence record lists protein production as failed

// `MNRSDKWQQRVAQVAYRFNQQYQNQSLELPAEVQEMPIYREWISGILAGKIASPFWEMAQPQKNQHCLDIGCGVSFLIYPWRDWQAFFYGQDVSNVARDTLNSRGSQLNSKLFKGVELGAAHQLKYTLSYFDLAIATGFSCYFPLEYWTSVLQAVKRVLKPDGHFVFDILNAAHPQAEDWAVLETYLGAEVFLEPVTEWEKIINAAGAKVVGRQPGEFFDLYKLRLEHHHHHH` : protein production value = failed

Form: sequence = `MSLAVKPGEPLPDFLLLDPKGQPVTPATVSKPAVIVFWASWCTVCKAEFPGLHRVAEETGVPFYVISREPRDTREVVLEYMKTYPRFIPLLASDRDRPHEVAARFKVLGQPWTFVVDREGKVVALFAGRAGREALLDALLLAGADLEGHHHHHH` ; protein production = not failed

What the record says about `AIACHTQVGGSMQVPEPRRPFTCSSENNVTNSFFEEAYSASFRSKLYNMVEEIEQERAKYCNSANLSYMDAFGVEKESIEEDYNKEEDRDSLCSVDIADNSETSNRSSEDLLCDNCSKSLMFLNNVFKWNDLLFCNLDCYTSAILKNQKGADVKHRVACSLSPTWHKDCVHSVQD` : protein production is not failed

Item: `MIPPSYCFYYFIHSGGLLSLKIRCENFIRSIADLIRKAEIELPDDVVNALRKAESIEENQVAKSQLQAILKNIEIAKNHAVPMCQDTGIMIFFAELGTEFQPGFDLEAAVRDAVVLATREIPLRPNAVDPLNRNNSGNNTGSGIPDIHWKLVPGKQLKITVSPKGAGSENMSALRMFNPTEAGSIKNFVLETVINAGGMPCPPLTLGIGIGGSFDKAARLAKEALLEPLDAPMNELEQEVLEAVNALGIGCMGLGGSTTALAVHIKTAHCHTASLPVAINIQCWANRHASIVFGEEE` | protein production: failed
